# Tested on: Rattus norvegicus
# procedure.details: Area under the curve administered intraintestinal in rats.
# Assay type: ADME, organism-based
# setup.conditions: in vivo, other
Bridge positions count the residues as written; N and C are the ends. Square brackets hold non-standard residues; d marks the D form. Peptide text beside a SMILES is read from it. * marks the point of attachment. X2 = CC(=O)OC[C@@H]1O[C@@H](*)[C@@H](OC(C)=O)[C@@H](OC(C)=O)[C@H]1OC(C)=O; X1 = OC[C@@H]1O[C@@H](*)[C@@H](O)[C@@H](O)[C@H]1O; Mpa = O=C(O)CCS
measurement.type: AUC (ng·h/mL)

INSERT INTO results (molecule, assay_system, experimental_value) VALUES
  ('CC(=O)OC[C@@H]1O[C@@H](OC[C@@H]2NC(=O)[C@H](Cc3ccccc3)NC(=O)[C@H](Cc3ccc(O)cc3)NC(=O)CCSSC[C@@H](C(=O)N3CCC[C@H]3C(=O)N[C@@H](CCCN=C(N)N)C(=O)NCC(N)=O)NC(=O)[C@H](CC(N)=O)NC2=O)[C@@H](OC(C)=O)[C@@H](OC(C)=O)[C@H]1OC(C)=O ([Mpa]YFS(X2)NCPRG-NH2; disulfide 1-6)', 'Rattus norvegicus', 10.3),
  ('NC(=O)CNC(=O)[C@H](CCCN=C(N)N)NC(=O)[C@@H]1CCCN1C(=O)[C@@H]1CSSCCC(=O)N[C@@H](Cc2ccc(O)cc2)C(=O)N[C@@H](Cc2ccccc2)C(=O)N[C@@H](CO[C@@H]2O[C@@H](CO)[C@H](O)[C@H](O)[C@@H]2O)C(=O)N[C@@H](CC(N)=O)C(=O)N1 ([Mpa]YFS(X1)NCPRG-NH2; disulfide 1-6)', 'Rattus norvegicus', 5.75);

(I) NC(=O)CC[C@@H]1NC(=O)[C@H](Cc2ccccc2)NC(=O)[C@H](Cc2ccc(O)cc2)NC(=O)CCSSC[C@@H](C(=O)N2CCC[C@H]2C(=O)N[C@H](CCCN=C(N)N)C(=O)NCC(N)=O)NC(=O)[C@H](CC(N)=O)NC1=O
(II) NC(=O)CNC(=O)[C@@H](CCCN=C(N)N)NC(=O)[C@@H]1CCCN1C(=O)[C@@H]1CSSCCC(=O)N[C@H](Cc2ccc(O)cc2)C(=O)N[C@@H](Cc2ccccc2)C(=O)N[C@@H](CO)C(=O)N[C@@H](CC(N)=O)C(=O)N1
## Input Endpoint returns whichever of I and II has the numerically higher AUC. Response format: the label of the selected entry.
## Output II
(II: 2.35 ng·h/mL, I: 0.867 ng·h/mL)

---

# procedure.details: Degradation in vitro by rat intestinal juice.
# Format: ADME, organism-based
Bridge positions count the residues as written; N and C are the ends. Square brackets hold non-standard residues; d marks the D form. Peptide text beside a SMILES is read from it. * marks the point of attachment. X2 = CC(=O)OC[C@@H]1O[C@@H](*)[C@@H](OC(C)=O)[C@@H](OC(C)=O)[C@H]1OC(C)=O; X1 = OC[C@@H]1O[C@@H](*)[C@@H](O)[C@@H](O)[C@H]1O; Mpa = O=C(O)CCS
measurement.type: half-life (h)

INSERT INTO measurements (compound, experimental_value) VALUES
  ('NC(=O)CNC(=O)[C@H](CCCN=C(N)N)NC(=O)[C@@H]1CCCN1C(=O)[C@@H]1CSSCCC(=O)N[C@@H](Cc2ccc(O)cc2)C(=O)N[C@@H](Cc2ccccc2)C(=O)N[C@@H](CO[C@@H]2O[C@@H](CO)[C@H](O)[C@H](O)[C@@H]2O)C(=O)N[C@@H](CC(N)=O)C(=O)N1 ([Mpa]YFS(X1)NCPRG-NH2; disulfide 1-6)', 5.33),
  ('CC(=O)OC[C@@H]1O[C@@H](OC[C@@H]2NC(=O)[C@H](Cc3ccccc3)NC(=O)[C@H](Cc3ccc(O)cc3)NC(=O)CCSSC[C@@H](C(=O)N3CCC[C@H]3C(=O)N[C@@H](CCCN=C(N)N)C(=O)NCC(N)=O)NC(=O)[C@H](CC(N)=O)NC2=O)[C@@H](OC(C)=O)[C@@H](OC(C)=O)[C@H]1OC(C)=O ([Mpa]YFS(X2)NCPRG-NH2; disulfide 1-6)', 3.83);

(I) NC(=O)CNC(=O)[C@@H](CCCN=C(N)N)NC(=O)[C@@H]1CCCN1C(=O)[C@@H]1CSSCCC(=O)N[C@H](Cc2ccc(O)cc2)C(=O)N[C@@H](Cc2ccccc2)C(=O)N[C@@H](CO)C(=O)N[C@@H](CC(N)=O)C(=O)N1
(II) NC(=O)CC[C@@H]1NC(=O)[C@H](Cc2ccccc2)NC(=O)[C@H](Cc2ccc(O)cc2)NC(=O)CCSSC[C@@H](C(=O)N2CCC[C@H]2C(=O)N[C@H](CCCN=C(N)N)C(=O)NCC(N)=O)NC(=O)[C@H](CC(N)=O)NC1=O [DESMOPRESSIN]
## Input half-life comparison. Which is larger, I or II ? Your answer should be the label of the entry you select.
## Output I
